pIC50: −log10 of the molar value.
// pIC50 collected for Protein deacetylase HDAC6 (Homo sapiens, UniProt Q9UBN7)
assayEndpoint: pIC50

Worked examples, 2 molecules total:
{"columns": ["structureSmiles", "pIC50"],
 "data": [
  ["Cc1c(F)c(N)cc(C(=O)Nc2cc(-c3ccc(NC(=O)Cc4ccc(/C=C/C(=O)NO)cc4)cc3)ccc2N2CCN(C)CC2)c1Cl", 6.80],
  ["Cc1c(F)c(N)cc(C(=O)Nc2cc(-c3ccc(C(=O)NCc4ccc(/C=C/C(=O)NO)cc4)cc3)ccc2N2CCN(C)CC2)c1Cl", 7.34]
]}

a. Cc1c(F)c(N)cc(C(=O)Nc2cc(-c3ccc(NC(=O)CCc4ccc(/C=C/C(=O)NO)cc4)cc3)ccc2N2CCN(C)CC2)c1Cl
b. Cc1c(F)c(N)cc(C(=O)Nc2cc(-c3ccc(NC(=O)c4ccc(/C=C/C(=O)NO)cc4)cc3)ccc2N2CCN(C)CC2)c1Cl
query: Compare a and b by numeric pIC50 and name the larger one. Selection: enter the item's label.
result: a

* * *

Biological target: Histone-lysine N-methyltransferase 2A (Homo sapiens)
Sequence (Q03164 1-2718 limits assumed): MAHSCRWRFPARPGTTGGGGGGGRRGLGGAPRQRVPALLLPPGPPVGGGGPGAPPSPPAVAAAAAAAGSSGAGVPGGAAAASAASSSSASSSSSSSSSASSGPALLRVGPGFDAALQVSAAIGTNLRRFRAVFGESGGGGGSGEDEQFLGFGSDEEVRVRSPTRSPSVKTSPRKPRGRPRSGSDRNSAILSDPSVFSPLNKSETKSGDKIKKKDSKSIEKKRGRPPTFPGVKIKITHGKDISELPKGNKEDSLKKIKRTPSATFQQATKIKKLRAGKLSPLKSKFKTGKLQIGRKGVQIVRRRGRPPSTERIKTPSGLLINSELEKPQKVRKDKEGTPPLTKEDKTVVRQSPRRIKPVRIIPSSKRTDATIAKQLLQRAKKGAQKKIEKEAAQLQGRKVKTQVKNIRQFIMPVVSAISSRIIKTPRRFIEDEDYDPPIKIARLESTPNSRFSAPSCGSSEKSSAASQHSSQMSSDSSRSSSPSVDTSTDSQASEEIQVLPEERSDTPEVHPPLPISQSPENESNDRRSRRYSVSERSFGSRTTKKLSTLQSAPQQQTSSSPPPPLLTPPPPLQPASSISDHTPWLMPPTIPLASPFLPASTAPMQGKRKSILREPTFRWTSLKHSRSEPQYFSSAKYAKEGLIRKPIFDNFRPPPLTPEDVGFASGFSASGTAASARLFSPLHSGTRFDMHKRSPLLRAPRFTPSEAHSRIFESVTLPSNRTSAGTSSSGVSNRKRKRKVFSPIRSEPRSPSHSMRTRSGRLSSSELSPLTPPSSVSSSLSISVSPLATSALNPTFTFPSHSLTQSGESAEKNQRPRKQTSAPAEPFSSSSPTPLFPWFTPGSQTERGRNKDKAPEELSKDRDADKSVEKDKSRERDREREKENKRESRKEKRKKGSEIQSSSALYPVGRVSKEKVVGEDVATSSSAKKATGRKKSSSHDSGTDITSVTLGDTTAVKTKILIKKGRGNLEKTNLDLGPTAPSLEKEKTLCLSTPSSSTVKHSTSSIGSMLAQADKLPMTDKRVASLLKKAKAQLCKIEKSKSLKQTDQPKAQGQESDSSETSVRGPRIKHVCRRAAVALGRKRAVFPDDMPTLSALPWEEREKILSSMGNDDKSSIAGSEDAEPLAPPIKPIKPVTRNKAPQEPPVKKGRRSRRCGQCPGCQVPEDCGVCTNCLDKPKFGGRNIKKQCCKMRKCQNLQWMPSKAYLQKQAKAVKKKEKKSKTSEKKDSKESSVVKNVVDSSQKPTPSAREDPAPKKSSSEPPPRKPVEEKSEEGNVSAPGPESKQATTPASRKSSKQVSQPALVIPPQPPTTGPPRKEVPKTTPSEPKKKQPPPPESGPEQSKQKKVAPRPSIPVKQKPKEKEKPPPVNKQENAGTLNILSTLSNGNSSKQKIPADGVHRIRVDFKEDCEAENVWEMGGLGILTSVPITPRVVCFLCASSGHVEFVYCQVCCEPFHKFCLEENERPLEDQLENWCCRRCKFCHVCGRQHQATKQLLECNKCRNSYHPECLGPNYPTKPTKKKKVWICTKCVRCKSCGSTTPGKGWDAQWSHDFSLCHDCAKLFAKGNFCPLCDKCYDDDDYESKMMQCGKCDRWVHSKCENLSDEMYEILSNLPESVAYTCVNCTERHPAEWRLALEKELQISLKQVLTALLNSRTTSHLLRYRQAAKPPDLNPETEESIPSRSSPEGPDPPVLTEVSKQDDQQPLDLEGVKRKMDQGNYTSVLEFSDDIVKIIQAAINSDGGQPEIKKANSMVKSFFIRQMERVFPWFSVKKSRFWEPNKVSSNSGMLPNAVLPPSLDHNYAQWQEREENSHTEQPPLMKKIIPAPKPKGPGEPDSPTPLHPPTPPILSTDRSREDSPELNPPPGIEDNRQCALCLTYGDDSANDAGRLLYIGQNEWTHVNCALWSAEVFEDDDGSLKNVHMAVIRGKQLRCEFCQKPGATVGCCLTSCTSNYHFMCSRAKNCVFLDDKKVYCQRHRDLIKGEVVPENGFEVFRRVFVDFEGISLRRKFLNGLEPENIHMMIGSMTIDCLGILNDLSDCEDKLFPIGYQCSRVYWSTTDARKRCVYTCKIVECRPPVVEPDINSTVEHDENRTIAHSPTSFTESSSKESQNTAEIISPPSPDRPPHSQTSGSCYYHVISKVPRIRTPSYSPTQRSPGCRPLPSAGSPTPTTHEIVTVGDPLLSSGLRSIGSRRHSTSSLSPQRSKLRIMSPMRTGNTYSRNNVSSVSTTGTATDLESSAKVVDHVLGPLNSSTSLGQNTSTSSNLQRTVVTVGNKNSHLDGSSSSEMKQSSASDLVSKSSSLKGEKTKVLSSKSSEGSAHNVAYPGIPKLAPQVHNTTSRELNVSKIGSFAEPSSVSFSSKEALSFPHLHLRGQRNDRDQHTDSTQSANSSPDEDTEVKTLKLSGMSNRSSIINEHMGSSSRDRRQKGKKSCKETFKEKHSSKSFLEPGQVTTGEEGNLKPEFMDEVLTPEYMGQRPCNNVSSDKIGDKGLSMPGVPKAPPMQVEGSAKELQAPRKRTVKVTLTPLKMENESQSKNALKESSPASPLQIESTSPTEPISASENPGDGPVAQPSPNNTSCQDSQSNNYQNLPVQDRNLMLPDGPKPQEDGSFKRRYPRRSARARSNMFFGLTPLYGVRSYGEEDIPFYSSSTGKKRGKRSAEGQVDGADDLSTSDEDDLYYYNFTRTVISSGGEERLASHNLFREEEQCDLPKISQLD
Sequence (Q03164 2719-3969 limits assumed): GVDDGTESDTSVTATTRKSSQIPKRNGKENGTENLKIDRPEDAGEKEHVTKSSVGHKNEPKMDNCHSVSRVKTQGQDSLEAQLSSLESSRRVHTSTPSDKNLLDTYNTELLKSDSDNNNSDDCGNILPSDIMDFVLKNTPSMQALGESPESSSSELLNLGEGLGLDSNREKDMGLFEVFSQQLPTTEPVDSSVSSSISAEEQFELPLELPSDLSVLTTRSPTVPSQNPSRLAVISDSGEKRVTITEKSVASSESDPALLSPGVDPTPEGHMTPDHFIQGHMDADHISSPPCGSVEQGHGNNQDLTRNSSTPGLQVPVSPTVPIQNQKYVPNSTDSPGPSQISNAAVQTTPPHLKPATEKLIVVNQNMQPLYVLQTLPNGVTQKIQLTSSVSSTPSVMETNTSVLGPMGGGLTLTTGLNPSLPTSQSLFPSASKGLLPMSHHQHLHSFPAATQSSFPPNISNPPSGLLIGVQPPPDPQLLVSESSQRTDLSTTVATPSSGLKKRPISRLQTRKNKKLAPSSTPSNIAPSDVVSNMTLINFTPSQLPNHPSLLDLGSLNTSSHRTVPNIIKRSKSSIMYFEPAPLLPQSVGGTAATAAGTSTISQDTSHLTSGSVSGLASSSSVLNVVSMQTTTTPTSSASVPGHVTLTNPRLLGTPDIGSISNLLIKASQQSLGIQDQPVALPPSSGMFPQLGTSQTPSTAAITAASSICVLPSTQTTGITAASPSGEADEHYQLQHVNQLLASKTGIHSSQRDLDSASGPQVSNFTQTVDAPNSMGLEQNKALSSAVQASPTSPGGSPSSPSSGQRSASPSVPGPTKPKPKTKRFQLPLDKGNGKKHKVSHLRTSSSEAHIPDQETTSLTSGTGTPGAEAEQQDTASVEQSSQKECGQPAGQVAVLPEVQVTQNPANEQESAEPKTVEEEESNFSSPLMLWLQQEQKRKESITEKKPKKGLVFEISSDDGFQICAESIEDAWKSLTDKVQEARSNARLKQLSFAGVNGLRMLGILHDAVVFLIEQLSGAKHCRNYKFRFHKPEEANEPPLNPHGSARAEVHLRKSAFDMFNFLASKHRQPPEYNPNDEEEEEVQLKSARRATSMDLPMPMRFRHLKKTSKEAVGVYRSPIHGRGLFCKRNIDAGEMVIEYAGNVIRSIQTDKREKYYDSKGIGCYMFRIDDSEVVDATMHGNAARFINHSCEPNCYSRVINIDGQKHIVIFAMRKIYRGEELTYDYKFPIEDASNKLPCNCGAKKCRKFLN
Test: Inhibition of MLL1 (unknown origin) by fluorescence based assay
assayEndpoint: IC50 (µM)
The response must be a number in µM with no trailing unit.

{"columns": ["structureSmiles", "unitSpec", "IC50"],
 "data": [
  ["Cc1c(F)c(N)cc(C(=O)Nc2cc(-c3ccc(NC(=O)CCCCCCC(=O)NO)cc3)ccc2N2CCN(C)CC2)c1Cl", "µM", 0.392]
]}

# next compound below
query: Give the value of IC50 reported for the following: "Cc1c(F)c(N)cc(C(=O)Nc2cc(-c3ccc(C(=O)NCc4ccc(/C=C/C(=O)NO)cc4)cc3)ccc2N2CCN(C)CC2)c1Cl"
result: 0.131

* * *

Biological target: Histone-lysine N-methyltransferase 2A/WDR5 (Homo sapiens, UniProt P61964)
Experiment: Inhibition of MLL1/WDR5 (unknown origin) protein-protein interaction incubated for 2 hrs by FP analysis
assayEndpoint: IC50 (nM)

{"columns": ["structureSmiles", "IC50 (nM)"],
 "data": [
  ["Cc1c(F)c(N)cc(C(=O)Nc2cc(-c3ccc(NC(=O)Cc4ccc(C(=O)NO)cc4)cc3)ccc2N2CCN(C)CC2)c1Cl", 87],
  ["Cc1c(F)c(N)cc(C(=O)Nc2cc(-c3ccc(NC(=O)Cc4ccc(/C=C/C(=O)NO)cc4)cc3)ccc2N2CCN(C)CC2)c1Cl", 69]
]}

A. Cc1c(F)c(N)cc(C(=O)Nc2cc(-c3ccc(NC(=O)c4ccccc4N)cc3)ccc2N2CCN(C)CC2)c1Cl
B. Cc1c(F)c(N)cc(C(=O)Nc2cc(-c3ccc(C(=O)NCCCCCCCC(=O)NO)cc3)ccc2N2CCN(C)CC2)c1Cl
query: Determine, for A and B , which has the greater value of IC50. Answer = label.
result: A
(A: 410 nM, B: 188 nM)

* * *

Biological target: Histone-lysine N-methyltransferase 2A/WDR5 (Homo sapiens, UniProt P61964)
Test: Inhibition of MLL1/WDR5 (unknown origin) protein-protein interaction incubated for 2 hrs by FP analysis
Assay type: protein assay
pIC50: −log10 of the molar value.
assayEndpoint: pIC50

Below are worked cases with known answers.
{"columns": ["structureSmiles", "pIC50"],
 "data": [
  ["Cc1c(F)c(N)cc(C(=O)Nc2cc(-c3ccc(NC(=O)CCCCC(=O)NO)cc3)ccc2N2CCN(C)CC2)c1Cl", 7.48],
  ["Cc1c(F)c(N)cc(C(=O)Nc2cc(-c3ccc(C(=O)NCCCC(=O)NO)cc3)ccc2N2CCN(C)CC2)c1Cl", 7.52],
  ["Cc1c(F)c(N)cc(C(=O)Nc2cc(-c3ccc(NC(=O)c4ccc(CC(=O)NO)cc4)cc3)ccc2N2CCN(C)CC2)c1Cl", 6.65]
]}

1. Cc1c(F)c(N)cc(C(=O)Nc2cc(-c3ccc(NC(=O)CCCCCC(=O)NO)cc3)ccc2N2CCN(C)CC2)c1Cl
2. Cc1c(F)c(N)cc(C(=O)Nc2cc(-c3ccc(NC(=O)CCc4ccc(/C=C/C(=O)NO)cc4)cc3)ccc2N2CCN(C)CC2)c1Cl
3. Cc1c(F)c(N)cc(C(=O)Nc2cc(-c3ccc(NC(=O)CCCC(=O)NO)cc3)ccc2N2CCN(C)CC2)c1Cl
query: Hey, quick one: sort these by pIC50, low to high? A ranking is expressed here by listing the labels in the requested order.
result: 2, 1, 3
(2: 6.42, 1: 6.74, 3: 7.37)

The values you see were collected from ChEMBL document CHEMBL6096706.
